# targetOfAssay: panel of more than 300 wild-type and mutant kinases (313 kinase panel) (Homo sapiens, UniProt P10721, V654A)
# Sequence (P10721 26-976 V654A): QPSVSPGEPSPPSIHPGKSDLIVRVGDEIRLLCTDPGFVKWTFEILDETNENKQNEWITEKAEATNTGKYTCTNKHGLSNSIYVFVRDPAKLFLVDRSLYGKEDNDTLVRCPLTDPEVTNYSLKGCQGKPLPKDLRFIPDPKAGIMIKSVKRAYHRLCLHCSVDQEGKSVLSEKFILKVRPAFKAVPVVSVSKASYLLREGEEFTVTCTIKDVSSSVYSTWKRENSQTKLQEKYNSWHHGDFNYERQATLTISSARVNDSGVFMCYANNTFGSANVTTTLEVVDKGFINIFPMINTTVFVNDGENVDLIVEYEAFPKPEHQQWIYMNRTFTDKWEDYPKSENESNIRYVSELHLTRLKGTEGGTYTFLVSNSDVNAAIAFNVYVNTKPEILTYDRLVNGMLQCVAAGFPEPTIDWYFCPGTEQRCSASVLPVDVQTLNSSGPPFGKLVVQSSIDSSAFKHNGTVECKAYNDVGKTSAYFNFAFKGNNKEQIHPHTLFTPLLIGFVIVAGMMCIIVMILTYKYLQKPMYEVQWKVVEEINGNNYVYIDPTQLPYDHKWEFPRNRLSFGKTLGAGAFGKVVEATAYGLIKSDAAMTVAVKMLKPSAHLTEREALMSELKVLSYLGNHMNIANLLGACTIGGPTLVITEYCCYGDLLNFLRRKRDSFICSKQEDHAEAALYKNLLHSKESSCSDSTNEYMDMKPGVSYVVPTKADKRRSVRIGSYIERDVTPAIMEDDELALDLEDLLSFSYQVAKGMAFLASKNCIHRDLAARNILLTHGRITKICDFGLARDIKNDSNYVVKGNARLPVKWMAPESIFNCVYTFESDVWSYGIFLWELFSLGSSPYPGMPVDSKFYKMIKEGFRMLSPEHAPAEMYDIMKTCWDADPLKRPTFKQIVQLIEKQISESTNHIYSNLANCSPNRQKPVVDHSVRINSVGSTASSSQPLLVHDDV
# assayMethodText: Kinase profiling in a biochemical assay panel (mobility shift assays and ELISA), %-inhibition at 1 μM; selectivity entropy
# studyConditions: kinase KIT(V654A); compound at 1 μM
Can you tell me %-inhibition of KIT(V654A) for the items I'm about to list?
Give bare numbers, in %.

Reference set, count: 5
N#CC[C@H](C1CCCC1)n1cc(-c2ncnc3[nH]ccc23)cn1 [ruxolitinib]
-10
CCCS(=O)(=O)Nc1ccc(F)c(C(=O)c2c[nH]c3ncc(-c4ccc(Cl)cc4)cc23)c1F [vemurafenib]
-1.8
COc1cc(Nc2c(C#N)cnc3cc(OCCCN4CCN(C)CC4)c(OC)cc23)c(Cl)cc1Cl [bosutinib]
8
O=S(=O)(c1cccc2cnccc12)N1CCCNCC1 [fasudil]
-4
CC(C)(C)c1nc(-c2cccc(NS(=O)(=O)c3c(F)cccc3F)c2F)c(-c2ccnc(N)n2)s1 [dabrafenib]
-3.17

Recorded result, C[C@@H](Oc1cc(-c2cnn(C3CCNCC3)c2)cnc1N)c1c(Cl)ccc(F)c1Cl [crizotinib] , %-inhibition of KIT(V654A): -3.75

----------
Can you tell me %-inhibition of FGR for the items I'm about to list?
# targetOfAssay: panel of more than 300 wild-type and mutant kinases (313 kinase panel) (Homo sapiens, UniProt P09769)
# assayMethodText: Kinase profiling in a biochemical assay panel (mobility shift assays and ELISA), %-inhibition at 1 μM; selectivity entropy
# studyConditions: kinase FGR; compound at 1 μM
One number for each entry, in %.

Reference set, count: 3
Cc1ccc(Nc2nccc(N(C)c3ccc4c(C)n(C)nc4c3)n2)cc1S(N)(=O)=O
86
CS(=O)(=O)CCNCc1ccc(-c2ccc3ncnc(Nc4ccc(OCc5cccc(F)c5)c(Cl)c4)c3c2)o1
10
CO[C@H]1C[C@@H]2CC[C@@H](C)[C@@](O)(O2)C(=O)C(=O)N2CCCC[C@H]2C(=O)O[C@H]([C@H](C)C[C@@H]2CC[C@@H](OCCO)[C@H](OC)C2)CC(=O)[C@H](C)/C=C(\C)[C@@H](O)[C@@H](OC)C(=O)[C@H](C)C[C@H](C)/C=C/C=C/C=C/1C
1

Next item in the queue.
Recorded result, `COc1cc2c(Nc3ccc(Br)cc3F)ncnc2cc1OCC1CCN(C)CC1` , %-inhibition of FGR: 86

----------
# targetOfAssay: panel of more than 300 wild-type and mutant kinases (313 kinase panel) (Homo sapiens)
# assayMethodText: Kinase profiling in a biochemical assay panel (mobility shift assays and ELISA), %-inhibition at 1 μM; selectivity entropy
# studyConditions: kinase p70S6Kβ; 1 μM
Can you tell me %-inhibition of p70S6Kβ for the items I'm about to list?
Answers are plain numbers, in %.

Reference set, count: 10
CC(C)(C)c1nc(-c2cccc(NS(=O)(=O)c3c(F)cccc3F)c2F)c(-c2ccnc(N)n2)s1
-0.554
CO[C@H]1C[C@@H]2CC[C@@H](C)[C@@](O)(O2)C(=O)C(=O)N2CCCC[C@H]2C(=O)O[C@H]([C@H](C)C[C@@H]2CC[C@@H](OCCO)[C@H](OC)C2)CC(=O)[C@H](C)/C=C(\C)[C@@H](O)[C@@H](OC)C(=O)[C@H](C)C[C@H](C)/C=C/C=C/C=C/1C
-11
COc1cc2c(Nc3ccc(Br)cc3F)ncnc2cc1OCC1CCN(C)CC1
2.58
N#CC[C@H](C1CCCC1)n1cc(-c2ncnc3[nH]ccc23)cn1
11
CNC(=O)c1cc(Oc2ccc(NC(=O)Nc3ccc(Cl)c(C(F)(F)F)c3)c(F)c2)ccn1
1.41
CN(C)C/C=C/C(=O)Nc1cc2c(Nc3ccc(F)c(Cl)c3)ncnc2cc1O[C@H]1CCOC1
3.42
CO[C@H]1C[C@@H]2CC[C@@H](C)[C@@](O)(O2)C(=O)C(=O)N2CCCC[C@H]2C(=O)O[C@H]([C@H](C)C[C@@H]2CC[C@@H](OC(=O)C(C)(CO)CO)[C@H](OC)C2)CC(=O)[C@H](C)/C=C(\C)[C@@H](O)[C@@H](OC)C(=O)[C@H](C)C[C@H](C)/C=C/C=C/C=C/1C
-7
COc1cc2nccc(Oc3ccc(NC(=O)C4(C(=O)Nc5ccc(F)cc5)CC4)cc3)c2cc1OC [cabozantinib]
-3.52
Cc1ccc(Nc2nccc(N(C)c3ccc4c(C)n(C)nc4c3)n2)cc1S(N)(=O)=O
1.69
O=S(=O)(c1cccc2cnccc12)N1CCCNCC1
37

Give me %-inhibition of p70S6Kβ for each of these compounds, listed below.
1. Cc1cn(-c2cc(NC(=O)c3ccc(C)c(Nc4nccc(-c5cccnc5)n4)c3)cc(C(F)(F)F)c2)cn1
2. C[C@@H](Oc1cc(-c2cnn(C3CCNCC3)c2)cnc1N)c1c(Cl)ccc(F)c1Cl
3. CCCS(=O)(=O)Nc1ccc(F)c(C(=O)c2c[nH]c3ncc(-c4ccc(Cl)cc4)cc23)c1F
4. Cc1ccc(C(=O)Nc2ccc(CN3CCN(C)CC3)c(C(F)(F)F)c2)cc1C#Cc1cnc2cccnn12
5. CC(=O)Nc1cccc(-n2c(=O)n(C3CC3)c(=O)c3c(Nc4ccc(I)cc4F)n(C)c(=O)c(C)c32)c1
6. CS(=O)(=O)CCNCc1ccc(-c2ccc3ncnc(Nc4ccc(OCc5cccc(F)c5)c(Cl)c4)c3c2)o1

A:
-3.7
6
0.235
78
-1
8

----------
Can you tell me %-inhibition of FGFR1 for the items I'm about to list?
# targetOfAssay: panel of more than 300 wild-type and mutant kinases (313 kinase panel) (Homo sapiens)
# assayMethodText: Kinase profiling in a biochemical assay panel (mobility shift assays and ELISA), %-inhibition at 1 μM; selectivity entropy
# studyConditions: kinase FGFR1; compound at 1 μM
Answers are plain numbers, in %.

Reference set, count: 10
CCCS(=O)(=O)Nc1ccc(F)c(C(=O)c2c[nH]c3ncc(-c4ccc(Cl)cc4)cc23)c1F
21
O=S(=O)(c1cccc2cnccc12)N1CCCNCC1
-0.145
Cc1ccc(C(=O)Nc2ccc(CN3CCN(C)CC3)c(C(F)(F)F)c2)cc1C#Cc1cnc2cccnn12
101
CO[C@H]1C[C@@H]2CC[C@@H](C)[C@@](O)(O2)C(=O)C(=O)N2CCCC[C@H]2C(=O)O[C@H]([C@H](C)C[C@@H]2CC[C@@H](OCCO)[C@H](OC)C2)CC(=O)[C@H](C)/C=C(\C)[C@@H](O)[C@@H](OC)C(=O)[C@H](C)C[C@H](C)/C=C/C=C/C=C/1C
-8
CS(=O)(=O)CCNCc1ccc(-c2ccc3ncnc(Nc4ccc(OCc5cccc(F)c5)c(Cl)c4)c3c2)o1
-0.636
Cc1cn(-c2cc(NC(=O)c3ccc(C)c(Nc4nccc(-c5cccnc5)n4)c3)cc(C(F)(F)F)c2)cn1
-29
COc1cc2nccc(Oc3ccc(NC(=O)C4(C(=O)Nc5ccc(F)cc5)CC4)cc3)c2cc1OC [cabozantinib]
16
CC(C)(C)c1nc(-c2cccc(NS(=O)(=O)c3c(F)cccc3F)c2F)c(-c2ccnc(N)n2)s1
10
CC(=O)Nc1cccc(-n2c(=O)n(C3CC3)c(=O)c3c(Nc4ccc(I)cc4F)n(C)c(=O)c(C)c32)c1
-1.45
CO[C@H]1C[C@@H]2CC[C@@H](C)[C@@](O)(O2)C(=O)C(=O)N2CCCC[C@H]2C(=O)O[C@H]([C@H](C)C[C@@H]2CC[C@@H](OC(=O)C(C)(CO)CO)[C@H](OC)C2)CC(=O)[C@H](C)/C=C(\C)[C@@H](O)[C@@H](OC)C(=O)[C@H](C)C[C@H](C)/C=C/C=C/C=C/1C
-6.47

Give me %-inhibition of FGFR1 for each of these compounds, listed below.
1. N#CC[C@H](C1CCCC1)n1cc(-c2ncnc3[nH]ccc23)cn1
2. C[C@@H](Oc1cc(-c2cnn(C3CCNCC3)c2)cnc1N)c1c(Cl)ccc(F)c1Cl

A:
24
17

----------
# targetOfAssay: panel of more than 300 wild-type and mutant kinases (313 kinase panel) (Homo sapiens)
# assayMethodText: Kinase profiling in a biochemical assay panel (mobility shift assays and ELISA), %-inhibition at 1 μM; selectivity entropy
# studyConditions: kinase PAK1; 1 μM
measureName: %-inhibition of PAK1 (%)
One number for each entry, in %.

COc1cc2nccc(Oc3ccc(NC(=O)C4(C(=O)Nc5ccc(F)cc5)CC4)cc3)c2cc1OC [cabozantinib]
-2.55
Cc1cn(-c2cc(NC(=O)c3ccc(C)c(Nc4nccc(-c5cccnc5)n4)c3)cc(C(F)(F)F)c2)cn1 [nilotinib]
-159
CO[C@H]1C[C@@H]2CC[C@@H](C)[C@@](O)(O2)C(=O)C(=O)N2CCCC[C@H]2C(=O)O[C@H]([C@H](C)C[C@@H]2CC[C@@H](OCCO)[C@H](OC)C2)CC(=O)[C@H](C)/C=C(\C)[C@@H](O)[C@@H](OC)C(=O)[C@H](C)C[C@H](C)/C=C/C=C/C=C/1C [everolimus]
-5.39

Next item in the queue.
Recorded result, Cc1ccc(Nc2nccc(N(C)c3ccc4c(C)n(C)nc4c3)n2)cc1S(N)(=O)=O [pazopanib] , %-inhibition of PAK1: -0.494
